molecules and their reported IC50
Tgt: Transient receptor potential cation channel subfamily V member 1 (Homo sapiens, UniProt Q8NER1)
Sequence (Q8NER1 whole entry): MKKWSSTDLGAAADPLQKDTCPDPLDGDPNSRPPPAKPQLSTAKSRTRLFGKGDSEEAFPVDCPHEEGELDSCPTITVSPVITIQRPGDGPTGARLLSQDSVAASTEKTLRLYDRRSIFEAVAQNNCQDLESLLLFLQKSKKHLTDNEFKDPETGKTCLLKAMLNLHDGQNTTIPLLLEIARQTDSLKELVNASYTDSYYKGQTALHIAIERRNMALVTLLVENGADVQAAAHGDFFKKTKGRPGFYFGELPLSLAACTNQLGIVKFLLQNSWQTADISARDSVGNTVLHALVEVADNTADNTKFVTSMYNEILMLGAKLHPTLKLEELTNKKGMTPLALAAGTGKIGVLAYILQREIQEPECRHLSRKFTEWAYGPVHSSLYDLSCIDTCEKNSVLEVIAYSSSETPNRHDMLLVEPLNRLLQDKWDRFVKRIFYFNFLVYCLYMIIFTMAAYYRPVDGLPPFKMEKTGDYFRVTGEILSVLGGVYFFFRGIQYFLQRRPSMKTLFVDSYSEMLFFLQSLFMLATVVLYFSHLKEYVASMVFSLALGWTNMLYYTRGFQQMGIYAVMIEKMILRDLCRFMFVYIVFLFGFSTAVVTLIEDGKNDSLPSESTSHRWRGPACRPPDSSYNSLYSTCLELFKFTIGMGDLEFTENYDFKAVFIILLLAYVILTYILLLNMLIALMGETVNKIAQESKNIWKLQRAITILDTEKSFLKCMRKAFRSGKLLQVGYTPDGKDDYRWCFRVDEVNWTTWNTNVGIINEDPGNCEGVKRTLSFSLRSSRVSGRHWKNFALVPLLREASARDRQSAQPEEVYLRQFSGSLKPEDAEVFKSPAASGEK
Assay remarks: Antagonist activity against human TRPV1 expressed in HEK293 cells assessed as inhibition of capsaicin-induced increase in intracellular Ca2+ concentration by Fluo-4-AM dye based spectrofluorimetry
Metric name: IC50

1) CC(C)=CCC/C(C)=C\COC(=O)c1ccc(C)cc1
> 100 µM
2) CC(C)=CCC/C(C)=C\CNC(=O)NC1CCCCC1
15.7 µM
3) CC(C)=CCC/C(C)=C/CNC(=O)Nc1cccc(Cl)c1
0.71 µM
4) CC(C)=CCC/C(C)=C\CNC(=O)Oc1ccc(C(C)(C)C)cc1
> 100 µM
5) CC(C)=CCC/C(C)=C/COC(=O)c1ccc(C)cc1
> 100 µM
6) CC(C)=CCC/C(C)=C/CNC(=O)Cc1ccc(Cl)cc1
0.89 µM
7) CC(C)=CCC/C(C)=C/COC(=O)Cc1ccc(Cl)cc1
> 100 µM
8) CC(C)=CCC/C(C)=C\CO
> 100 µM
9) CC(C)=CCC/C(C)=C\COC(=O)Nc1ccc(C(C)(C)C)cc1
74.6 µM
10) CC(C)=CCC/C(C)=C/CNC(=O)Oc1ccc(C(C)(C)C)cc1
92.3 µM
11) CC(C)=CCC/C(C)=C\COC(=O)c1ccc(C#N)cc1
> 100 µM
12) CC(=O)OC/C=C(/C)CCC=C(C)C [NERYL ACETATE]
> 100 µM
13) CC(C)=CCC/C(C)=C/CNC(=O)Nc1ccc(C(C)(C)C)cc1
76.8 µM
14) CC(C)=CCC/C(C)=C/CO
> 100 µM
15) CC(C)=CCC/C(C)=C\COC(=O)Cc1ccc(Cl)cc1
> 100 µM
16) CC(C)=CCC/C(C)=C\CNC(=O)Cc1ccc(Cl)cc1
0.53 µM
17) CC(C)=CCCC(C)CCOC(=O)CCc1ccccc1 (stereo not drawn)
> 100 µM
18) CC(C)=CCC/C(C)=C/CNC(=O)CCc1ccccc1
> 100 µM
19) CC(C)=CCC/C(C)=C\COC(=O)Cc1ccc(C)cc1
> 100 µM
20) CC(C)=CCC/C(C)=C/COC(=O)c1cccc(C)c1
> 100 µM
21) CC(C)=CCC/C(C)=C\COC(=O)CCc1ccccc1
> 100 µM
22) CC(C)=CCC/C(C)=C/COC(=O)Cc1ccc(C)cc1
> 100 µM
23) CC(=O)OCCC(C)CCC=C(C)C (stereo not drawn) [CITRONELLYL ACETATE]
> 100 µM
24) COc1ccc(CC(=O)OC/C=C(\C)CCC=C(C)C)cc1
> 100 µM
25) CC(C)=CCC/C(C)=C/COC(=O)CCc1ccccc1
> 100 µM
26) CC(C)=CCCC(C)CCOC(=O)Cc1ccc(Cl)cc1 (stereo not drawn)
> 100 µM
27) CC(C)=CCC/C(C)=C\CNC(=O)Nc1cccc(Cl)c1
0.38 µM
28) CC(C)=CCC/C(C)=C\COC(=O)c1cccc(C)c1
> 100 µM
29) CC(C)=CCCC(C)CCOC(=O)Cc1ccc(C)cc1 (stereo not drawn)
> 100 µM
30) CC(C)=CCC/C(C)=C/COC(=O)c1ccc(C#N)cc1
> 100 µM
31) CC(C)=CCC/C(C)=C\CNC(=O)CCc1ccccc1
> 100 µM
32) CC(C)=CCC/C(C)=C/COC(=O)c1cc(C(F)(F)F)cc(C(F)(F)F)c1
> 100 µM
33) CC(C)=CCCC(C)CCO (racemic)
> 100 µM
